- Assay system: CCK receptor
- Test: 125I-CCK-33 receptor binding (pancreas or brain preparation not given)
- Protocol conditions: concentration dependent inhibition; tissue (rat pancreas or guinea pig brain) not stated; read-out: IC50, inhibition of specific 125I-CCK-33 binding
- Excerpt: The biological activity of the compounds of Formula I have been evaluated using an ^125 I-CCK receptor binding assay and in vitro isolated tissue preparations. CCK-33 was radiolabeled with ^125 I-Bolton Hunter reagent (2000 Ci/mmole) as described by Sankara et al. (J. Biol. Chem. 254: 9349-9351, 1979). […] Male Sprague-Dawley rats (200-350 g) were sacrificed by decapitation. […] The supernatant was aspirated and discarded, pellets were counted with a Beckman gamma 5000. […]
Reported property: IC50 (nM)

INSERT INTO measurements (compound, reported_property, observed_value) VALUES
  ('CCOC(=O)C(CCc1ccccc1)NC1CCc2ccccc2N(CC(=O)OC(C)(C)C)C1=O (stereo not drawn)', 'IC50', 2400),
  ('COC(=O)CN1C(=O)C(NC(CCc2ccccc2)C(=O)OC)CCc2ccccc21 (racemic)', 'IC50', 10000),
  ('CCOC(=O)C(CCc1c[nH]c2ccccc12)NC1CCc2ccccc2N(CC(=O)OC(C)(C)C)C1=O (stereo not drawn)', 'IC50', 400);
